Reference source: patent EP4039268A1

measured-on: T1, monomeric SARS-CoV-2 receptor binding domain (RBD-H6) (SARS-CoV-2, UniProt P0DTC2 319-541)
T1 construct: Made in HEK293-6E cells; also called RBD Spike; monomeric RBD
measurement-protocol: ELISA screen
experimental-endpoint: Mean normalized OD (OD)

INSERT INTO results (binder, experimental_endpoint, endpoint_result) VALUES
  ('Clec9a CRD-mouse IgG2a-Fc fusion protein (Fc fusion) NGKSCYYVFERWEMWNISKKSCLKEGASLFQIDSKEEMEFISSIGKLKGGNKYWVGVFQDGISGSWFWEDGSSPLSDLLPAERQRSAGQICGYLKDSTLISDKCDSWKYFICEGGGSGGGSGGGS', 'Mean normalized OD', 0.062),
  ('Thbd CRD-mouse IgG2a-Fc fusion protein (Fc fusion) VEHECFALFQGPATFLDASQACQRLQGHLMTVRSSVAADVISLLLSQSSMDLGPWIGLQLPQGCDDPVHLGPLRGFQWVTGDNHTSYSRWARPNDQTAPLCGPLCVTVSTATEAAPGEPAWEEKPCETETQGFLCEFGGGSGGGSGGGS', 'Mean normalized OD', 0),
  ('Lgalslb CRD-mouse IgG2a-Fc fusion protein (Fc fusion) YFRGHIKGGMRPGKKVLVMGIVDHNPKSFAISLTCGDSEDPPADVAIELKVVFTNQQVFRNSCISGESDEENLAFPYFPFVPDQPFRMEIFCQQPCFRVLVDGHHLFDFYHRIQTLSAIDSIKISGDLQIGGGSGGGSGGGS', 'Mean normalized OD', 0.01),
  ('Klrb1c CRD-mouse IgG2a-Fc fusion protein (Fc fusion) HRDKCFHVSQVSNTWEEGQADCGRKGATLLLIQDQEELRFLLDSIKEKYNSFWIGLRFTLPDMNWKWINGTTFNSDVLKITGVTENGSCASILGDKVTPESCASDNRWICQGGGSGGGSGGGS', 'Mean normalized OD', 0.004),
  ('Clec4e CRD-mouse IgG2a-Fc fusion protein (Fc fusion) YQSSCYFFSTTTLTWSSSLKNCSDMGAHLVVIDTQEEQEFLFRTKPKRKEFYIGLTDQVVEGQWQWVDDTPFTESLSFWDAGEPNNIVLVEDCATIRDSSNSRKNWNDIPCFYSMPWICEGGGSGGGSGGGS', 'Mean normalized OD', 0.022),
  ('Ly75_8 CRD-mouse IgG2a-Fc fusion protein (Fc fusion) FQNSCYNFMITNNRHKTVTPEEVQSTCEKLHSKAHSLSIRNEEENTFVVEQLLYFNYIASWVMLGITYENNSLMWFDKTALSYTHWRTGRPTVKNGKFLAGLSTDGFWDIQSFNVIEETLHFYQGGGSGGGSGGGS', 'Mean normalized OD', 0.007),
  ('Dgcr2 CRD-mouse IgG2a-Fc fusion protein (Fc fusion) CPSGWHHYEGTASCYRVYLSGENYWDAAQTCQRVNGSLATFSTDQELRFVLAQEWDQPERSFGWKDQRKLWVGYQYVITGRNHSLEGRWEVAFKGSPEVFLPPDPIFASAMSENDNVFCAQLQCFHFGGGSGGGSGGGS', 'Mean normalized OD', 0.003),
  ('Reg3a CRD-mouse IgG2a-Fc fusion protein (Fc fusion) YRSHCYALVMTPKSWFQADLVCQKRPSGHLVSILSGGEASFVSSLVNGRVDNYQDIWIGLHDPTMGQQPNGGGWEWSNSDVLNYLNWDGDPSSTVNRGHCGSLTASSGFLKWGDYYCDGTLPFVCKGGGSGGGSGGGS', 'Mean normalized OD', 0.039),
  ('Klrb1 CRD-mouse IgG2a-Fc fusion protein (Fc fusion) HCDKCLFTSQTSRPWADGLVDCNLKGATLLLIQDEEELRLLQNFSKGKGQQFYIGLKYEEVDKVWKWMNGSILNTNLLQITGKDEENSCALISQTEVFSDSCSSDNHWICQGGGSGGGSGGGS', 'Mean normalized OD', 0.005),
  ('Clec10a CRD-mouse IgG2a-Fc fusion protein (Fc fusion) CCPLHWTEHEGSCYWFSESEKSWPEADKYCRLENSHLVVVNSLEEQNFLQNRLANVVSWIGLTDQNGPWRWVDGTDFEKGFKNWAPLQPDNWFGHGLGGGEDCAHITTGGPWNDDVCQRTFRWICEMGGGSGGGSGGGS', 'Mean normalized OD', 0.064),
  ('Mbl2 CRD-mouse IgG2a-Fc fusion protein (Fc fusion) KVGKKYFVSSVKKMSLDRVKALCSEFQGSVATPRNAEENSAIQKVAKDIAYLGITDVRVEGSFEDLTGNRVRYTNWNDGEPNNTGDGEDCVVILGNGKWNDVPCSDSFLAICEGGGSGGGSGGGS', 'Mean normalized OD', 0.001),
  ('Cd302 CRD-mouse IgG2a-Fc fusion protein (Fc fusion) FQGSCYAFLQVTINVENIEDVRKQCTDHGADMVSIHNEEENAFILDTLQKRWKGPDDLLLGMFYDTDDATFKWYDHSNMTFDKWADQDGEDLVDTCGFLYTKTGEWRKGDCEISSVEGTLGGGSGGGSGGGS', 'Mean normalized OD', 0.001),
  ('Clec11a CRD-mouse IgG2a-Fc fusion protein (Fc fusion) LGHKCFLLSRDFETQAAAQARCKARGGSLAQPADRQQMDALSRYLRAALAPYNWPVWLGVHDRRSEGLYLFENGQRVSFFAWHRAFSLESGAQPSAATHPLSPDQPNGGVLENCVAQASDDGSWWDHDCERRLYFVCEGGGSGGGSGGGS', 'Mean normalized OD', 0.011),
  ('Mrc1_5 CRD-mouse IgG2a-Fc fusion protein (Fc fusion) YKDYQYYFSKEKETMDNARAFCKKNFGDLATIKSESEKKFLWKYINKNGGQSPYFIGMLISMDKKFIWMDGSKVDFVAWATGEPNFANDDENCVTMYTNSGFWNDINCGYPNNFICQGGGSGGGSGGGS', 'Mean normalized OD', 0);
